# maps each entry to its viability
- ASSAY_NOTES: reducers of endogenous Her2 protein level, primary screen, SKBR3 breast tumor cells, AlphaScreen, ATP viability (AID 461);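 also: percent of carrier control wells set as 100% viability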
- ASSAY_SETUP: 18-24 h, measured here: SKBR3 viability, ATP luminescence, at 10 µM

Some compounds with recorded viability:
### Prompt Field request: viability | item: O=C1C2CCCN2C(c2ccc(Cl)cc2)N1c1nccs1 (stereo not given)
### Response 99%

### Prompt Field request: viability | item: O=C(c1cc2n(n1)C(C(F)(F)F)CC(c1ccc(Cl)cc1)N2)N1CCCC1 (stereo not given)
### Response 86.5%

### Prompt Field request: viability | item: `COc1ccccc1OCCSc1nc2ccccc2c(=O)[nH]1`
### Response 81.5%

### Prompt Field request: viability | item: `CC(=O)c1ccc(NC(=O)c2noc3c2CCCCC3)cc1`
### Response 126%

### Prompt Field request: viability | item: `Cc1c(NC2=NC3(CCCCC3)Cc3ccccc32)c(=O)n(-c2ccccc2)n1C`
### Response 79.5%

### Prompt Field request: viability | item: Cc1c(NC(=O)C(C)OC(=O)C(NC(=O)c2ccco2)C(C)C)c(=O)n(-c2ccccc2)n1C (stereo not given)
### Response 91%

### Prompt Field request: viability | item: `CCOC(=O)N1CCN(c2c(NCC3CCN(Cc4cccc(C)c4)CC3)c(=O)c2=O)CC1`
### Response 102%

### Prompt Field request: viability | item: `CCC(=O)N1CCc2cc(S(=O)(=O)CCC(=O)Nc3c(C)n(C)n(-c4ccccc4)c3=O)ccc21`
### Response 96%

### Prompt Field request: viability | item: O=C(CN1C(=O)c2cccc3cccc1c23)NCC1CCCO1 (stereo not given)
### Response 104%

### Prompt Field request: viability | item: `COc1ccc(Cl)c(NCCC(=O)O)c1`
### Response 88%

***
### Prompt Field request: viability | item: O=C(C1CCCN(S(=O)(=O)c2cccnc2)C1)N1CCN(c2ccccn2)CC1 (stereo not given)
### Response 93.5%

### Prompt Field request: viability | item: `CCCCOC(=O)CN1C(=O)c2ccc(C(=O)OCCCC)cc2C1=O`
### Response 87%

### Prompt Field request: viability | item: `COc1ccc(NC(=O)Nc2cc(C)ccc2OC)cc1`
### Response 101%

### Prompt Field request: viability | item: `Cc1ccc(NC(=O)CSc2nnc(NC(=O)CN3CCOCC3)s2)cc1`
### Response 102%

### Prompt Field request: viability | item: `O=C(CCn1nc(-c2ccccc2)ccc1=O)N1CCCC1`
### Response 97%

### Prompt Field request: viability | item: `Cn1c(=O)cc(OCC(=O)NCCCN2CCN(c3cccc(Cl)c3)CC2)c2ccccc21`
### Response 85.5%

### Prompt Field request: viability | item: `CC(C)OC(=O)CSc1nnc(-c2ccc(C(C)(C)C)cc2)n1N`
### Response 93%

### Prompt Field request: viability | item: Cc1ccc(NC(=O)CN2CC(C)SC2=NC2CCCCC2)cc1 (stereo not given)
### Response 84.5%

### Prompt Field request: viability | item: `C=CCn1c(=O)/c(=C/c2ccc(O)cc2)s/c1=C(/C#N)c1nnc2n1CCCCC2`
### Response 93.5%

### Prompt Field request: viability | item: `COc1cc(NC(=O)NC(C)(C(F)(F)F)C(F)(F)F)cc(OC)c1OC`
### Response 138%
